# Test system: human iPSC-CMs
# MEASUREMENT NOTES: IC50 in human iPSC-CMs
# Format: cell-based
# PROTOCOL CONDITIONS: iPSC-CM
pIC50: −log10 of the molar value.
REPORTED PROPERTY: pIC50

According to the records, this compound CC(C)n1c(=O)cc(N[C@@H](C)c2cccc(F)c2)[nH]c1=O [MYK-581] displays pIC50 of ~6.70
